- SUBJECT OF TEST: urokinase (uPA) (Homo sapiens)
- EXPERIMENT NOTES: urokinase inhibition testing in vitro, chromogenic substrate S-2444, optical density at 405 nm
- Format: biochemical
- RECORDED CONDITIONS: synthesized compounds, Table 8; read-out: Experiment, uPA inhibition activity (IC50)
What IC50 was measured for each of the following?

Which IC50 reading was recorded for the compound Nc1cc2ccccc2cn1 [U003P] ?
> 500 µM

Thanks! And NC1=NCC(COc2ccccc2)O1 (stereo not drawn) [U006R] ?
> 500 µM

Thanks! And NC1=NCC(COc2c(Cl)cccc2Cl)O1 (stereo not drawn) [U012T] ?
> 500 µM

Thanks! And N=C(N)Sc1ccccc1 [U002R] ?
> 500 µM

Thanks! And Nc1nc(-c2ccc3ccccc3c2)cs1 [U009T] ?
> 500 µM

Thanks! And CC(=O)Nc1ccc2[nH]c(N)nc2c1 [U017R] ?
200 µM

---

- SUBJECT OF TEST: urokinase (uPA) (Homo sapiens)
- EXPERIMENT NOTES: urokinase inhibition testing in vitro, chromogenic substrate S-2444, optical density at 405 nm
- Format: biochemical
- RECORDED CONDITIONS: synthesized compounds, Table 8; read-out: Experiment, uPA inhibition activity (IC50)
READOUT NAME: IC50 (µM)
Reply numerically in µM, unit not repeated.

Which IC50 reading was recorded for the compound COc1ccc2nc(N)[nH]c2c1 [U019R] ?
500

Thanks! And N=C(N)Nc1nsc2ccccc12 [U024R, 1,2-benzisothiazol-3-yl-guanidine] ?
33

Thanks! And N=C(N)Nc1n[nH]c2ccccc12 [U021R] ?
500

Thanks! And Nc1nc(-c2ccccc2)c[nH]1 [U005r] ?
500

Thanks! And Nc1ccc2[nH]c(N)nc2c1 [U014R] ?
200

Thanks! And Nc1nc2cc(F)ccc2[nH]1 [U020R] ?
500

---

- SUBJECT OF TEST: UniProtKB P00749
- EXPERIMENT NOTES: urokinase inhibition testing in vitro, chromogenic substrate S-2444, optical density at 405 nm
- Format: biochemical
- RECORDED CONDITIONS: synthesized compounds, Table 8; read-out: Experiment, uPA inhibition activity (IC50)
pIC50: −log10 of the molar value.
READOUT NAME: pIC50

# returns recorded pIC50 (system: UniProtKB P00749) for N=C(N)Sc1ccccn1 [U001R]
< 3.30

Thanks! And Nc1nc2cc([N+](=O)[O-])ccc2[nH]1 [U014aR] ?
< 3.30

Thanks! And N=C(N)Nc1nsc2ccc(Br)cc12 [U026R] ?
4.70 to 5.40

Thanks! And N=C(N)Sc1ccc(Br)cn1 [U007R] ?
< 3.30

Thanks! And Nc1nc2cc(NS(=O)(=O)c3ccccc3)ccc2[nH]1 [U015R] ?
< 3.30

Thanks! And Cc1cccc(C)c1OCC1CN=C(N)O1 (stereo not drawn) [U013T] ?
< 3.30
